test system: HOP-62 NSCLC; experiment: NCI tumour cell line growth inhibition, 48 h

| molecule | GI50 |
| --- | --- |
| O=C(CCSc1ccnc2c(C(F)(F)F)cccc12)N/N=C/c1cc(Cl)c(Cl)cc1Cl | 19.8 µM |
| CC(=O)[O-].[Zn].c1ccc(/C(=N\Nc2ccccn2)c2ccccn2)cc1 | 0.591 µM |
| COc1cc(C2CC(=O)Nc3c2ccc2ccccc32)cc(Br)c1OC (stereo not drawn) | 0.753 µM |
| CN(C)CCCCn1ccc2c1C(=O)c1c(c(O)c3ccccc3c1O)C2=O | 15.8 µM |
| COc1cc2c3c(n(CCCBr)c(=O)c2cc1OC)-c1ccc(F)cc1C3=O | 4.21 µM |
| CCNNC(=O)[C@@H]1[C@H](c2cc(OC)c(OC)c(OC)c2)c2cc3c(cc2[C@H](O)[C@H]1CO)OCO3 | 0.561 µM |
| COc1c(Cl)ccc2c(-c3nc4cc(Cl)c(F)cc4s3)cc(=O)oc12 | 6.26 µM |
| Cc1nc2c(N3CCCC3)nc(N3CCNCC3)nc2nc1NCc1ccccc1 | 5.76 µM |
